// data source = paper PMC8342434

Assay: Equilibrium solubility of vitamin A in supercritical CO2 (static cell, UV-VIS)
Format: physicochemical
Conditions: SC-CO2, 303 K, 195 bar
parameter: Mole fraction
Just the number, please.

Asked: Can you look up the measured Mole fraction of CC1=C(/C=C/C(C)=C/C=C/C(C)=C/CO)C(C)(C)CCC1 for me?
Given back: 7.21e-05

* * *

Assay: Equilibrium solubility of vitamin A in supercritical CO2 (static cell, UV-VIS)
Format: physicochemical
Conditions: SC-CO2, 323 K, 205 bar
parameter: Mole fraction
Just the number, please.

Asked: Can you look up the measured Mole fraction of CC1=C(/C=C/C(C)=C/C=C/C(C)=C/CO)C(C)(C)CCC1 for me?
Given back: 0.00016
